Target: Cin5 (UniProt P40917)
Sequence: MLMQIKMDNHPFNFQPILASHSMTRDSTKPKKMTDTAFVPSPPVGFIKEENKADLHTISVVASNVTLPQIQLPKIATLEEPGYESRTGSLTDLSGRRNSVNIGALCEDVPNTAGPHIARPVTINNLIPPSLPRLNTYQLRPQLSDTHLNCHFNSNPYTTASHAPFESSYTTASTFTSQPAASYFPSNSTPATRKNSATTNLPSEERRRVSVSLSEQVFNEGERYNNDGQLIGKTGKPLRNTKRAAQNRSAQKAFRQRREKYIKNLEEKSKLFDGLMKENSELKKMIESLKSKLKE
Assay: PBM E-score (8-mer binding enrichment) (E-score (-0.5 to 0.5)); higher = stronger / more preferred TF binding
Settings: protein concentration: 100 nM; construct: GST-full length
Whole data set: some 33,000 sequences, median “E-score (-0.5 to 0.5)” near -0.0059, cut for the highest 2% near 0.26. The sample holds the highest values, similar sequences and a random draw of the others, so the mix is not that of the screen.
Outcome label depends on PBM E-score relative to -0.07: at/above gives Criterion met, below gives Criterion not met.

See these solved cases before continuing.
1) AAGCAAGC: Criterion met
2) AAGGAAAT: Criterion met
3) ACGCCTGC: Criterion not met
4) AGGCAGTG: Criterion met

Given GCCGCGAC , state whether its PBM E-score is at least -0.07.
Criterion not met

Given AAAAGCTT , state whether its PBM E-score is at least -0.07.
Criterion not met

* * *

Target: Cin5 (UniProt P40917)
Sequence: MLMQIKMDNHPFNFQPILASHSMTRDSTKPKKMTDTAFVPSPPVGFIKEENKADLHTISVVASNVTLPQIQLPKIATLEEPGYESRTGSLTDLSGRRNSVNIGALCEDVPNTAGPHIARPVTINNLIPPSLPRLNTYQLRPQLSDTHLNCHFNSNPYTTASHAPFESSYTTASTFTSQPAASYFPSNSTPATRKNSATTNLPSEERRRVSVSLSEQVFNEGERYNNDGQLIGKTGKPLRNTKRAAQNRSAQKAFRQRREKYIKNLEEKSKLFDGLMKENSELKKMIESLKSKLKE
Assay: PBM E-score (8-mer binding enrichment) (E-score (-0.5 to 0.5)); higher = stronger / more preferred TF binding
Conditions: protein concentration: 100 nM; construct: GST-full length
Whole data set: some 33,000 sequences, median “E-score (-0.5 to 0.5)” near -0.0059, cut for the highest 2% near 0.26. This excerpt belongs to a sample that is enriched for the highest values.
Outcome label depends on PBM E-score relative to -0.05: at/above gives Yes, below gives No.

See these solved cases before continuing.
1. AAAAGACT: No
2. AGTCTTAT: Yes
3. CCAGTCCG: No
4. GGCTGTAA: No
5. ACCACGCG: Yes

Given GGAACCCA , state whether its PBM E-score is at least -0.05.
No

Given CTGGGAAG , state whether its PBM E-score is at least -0.05.
No

Given GCTGGGCA , state whether its PBM E-score is at least -0.05.
No

* * *

Target: Cin5 (UniProt P40917)
Sequence: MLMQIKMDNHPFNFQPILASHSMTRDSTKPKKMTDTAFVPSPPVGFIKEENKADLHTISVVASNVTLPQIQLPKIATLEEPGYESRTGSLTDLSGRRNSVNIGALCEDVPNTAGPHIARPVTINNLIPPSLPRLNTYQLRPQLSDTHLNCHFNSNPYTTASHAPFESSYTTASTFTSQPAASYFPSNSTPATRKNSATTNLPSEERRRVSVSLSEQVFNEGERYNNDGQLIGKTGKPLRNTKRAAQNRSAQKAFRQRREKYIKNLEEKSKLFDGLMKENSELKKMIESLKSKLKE
Test: PBM E-score (8-mer binding enrichment) (E-score (-0.5 to 0.5)); higher = stronger / more preferred TF binding
Conditions: protein concentration: 100 nM; construct: GST-full length
Over roughly 33,000 sequences, “E-score (-0.5 to 0.5)” has its median near -0.0059; the highest 2% begin near 0.26. The sample holds the highest values, similar sequences and a random draw of the others, so the mix is not that of the screen.
Outcome label depends on PBM E-score relative to 0.03: at/above gives 1, below gives -1.

1. CCGCTTAG: -1
2. CGCCGCAA: 1

Given CGTGAAAG , state whether its PBM E-score is at least 0.03.
-1

Given CCACTTAA , state whether its PBM E-score is at least 0.03.
1

Given CCGCTTAC , state whether its PBM E-score is at least 0.03.
1

* * *

Target: Cin5 (UniProt P40917)
Sequence: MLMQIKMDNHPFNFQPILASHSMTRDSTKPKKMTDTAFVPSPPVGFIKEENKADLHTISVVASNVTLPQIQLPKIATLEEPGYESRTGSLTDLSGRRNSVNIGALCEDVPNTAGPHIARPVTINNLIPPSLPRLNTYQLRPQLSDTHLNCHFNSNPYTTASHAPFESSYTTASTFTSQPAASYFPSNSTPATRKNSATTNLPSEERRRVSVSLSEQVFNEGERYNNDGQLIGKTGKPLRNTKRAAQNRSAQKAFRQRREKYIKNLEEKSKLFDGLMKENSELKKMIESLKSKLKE
Assay: PBM E-score (8-mer binding enrichment) (E-score (-0.5 to 0.5)); higher = stronger / more preferred TF binding
Details: protein concentration: 100 nM; construct: GST-full length
The full ranking holds about 33,000 sequences; the median of “E-score (-0.5 to 0.5)” is about -0.0059, and the highest 2% start at about 0.26. The full list was thinned out, with the highest values kept by preference.
Outcome label depends on PBM E-score relative to 0.2: at/above gives Y, below gives N.

See these solved cases before continuing.
1) GAACGTTA: N
2) AGGTAATG: N
3) CATCGTAA: N

Given ATAATCTA , state whether its PBM E-score is at least 0.2.
Y

Given ATGAATGG , state whether its PBM E-score is at least 0.2.
Y

* * *

Biological target: Cin5 (UniProt P40917)
Sequence: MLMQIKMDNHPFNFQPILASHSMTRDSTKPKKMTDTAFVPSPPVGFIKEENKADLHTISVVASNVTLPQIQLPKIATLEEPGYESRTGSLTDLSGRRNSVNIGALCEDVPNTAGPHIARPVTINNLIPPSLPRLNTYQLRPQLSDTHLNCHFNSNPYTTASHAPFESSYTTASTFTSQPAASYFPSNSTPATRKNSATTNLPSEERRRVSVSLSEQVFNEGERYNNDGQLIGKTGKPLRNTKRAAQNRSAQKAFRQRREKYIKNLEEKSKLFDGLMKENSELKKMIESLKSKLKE
Experiment: PBM E-score (8-mer binding enrichment) (E-score (-0.5 to 0.5)); higher = stronger / more preferred TF binding
Conditions: protein concentration: 100 nM; construct: GST-full length
In all, about 33,000 sequences were measured (“E-score (-0.5 to 0.5)”: median about -0.0059, highest 2% from about 0.26 on). The entries come from a sample that favours the highest values as a whole.
readout label: PBM E-score
Answers are plain numbers.

Would you be so kind as to report PBM E-score for each listed record?
1. CACTGGGC
2. TACTATAA
3. CAAAAAGG
4. AACAATTA
5. CTACACAG

1: -0.14; 2: 0.333; 3: -0.138; 4: 0.295; 5: -0.0209

Would you be so kind as to report PBM E-score for each listed record?
1. GGTTGCTA
2. AGGCATAC
3. TTCCTAAA
4. ACGTTGGC
5. GGTCCGCA
6. AATTATAC

1: -0.0578; 2: 0.0609; 3: -0.157; 4: -0.143; 5: -0.0684; 6: 0.208

Would you be so kind as to report PBM E-score for each listed record?
1. CCTAGAGA
2. CATTATAA
3. CTCTATAC
4. CCTGGTAC

1: -0.119; 2: 0.0881; 3: -0.0333; 4: -0.1

* * *

Biological target: Cin5 (UniProt P40917)
Sequence: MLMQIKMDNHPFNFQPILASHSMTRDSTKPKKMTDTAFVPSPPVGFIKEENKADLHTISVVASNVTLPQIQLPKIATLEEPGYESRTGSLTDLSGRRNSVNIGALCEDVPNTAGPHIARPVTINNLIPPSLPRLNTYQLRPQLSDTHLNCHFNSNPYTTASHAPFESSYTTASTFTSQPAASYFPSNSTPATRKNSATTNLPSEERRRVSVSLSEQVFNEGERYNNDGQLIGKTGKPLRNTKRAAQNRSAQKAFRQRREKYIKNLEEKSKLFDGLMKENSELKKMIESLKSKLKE
Experiment: PBM E-score (8-mer binding enrichment) (E-score (-0.5 to 0.5)); higher = stronger / more preferred TF binding
Conditions: protein concentration: 100 nM; construct: GST-full length
The full ranking holds about 33,000 sequences; the median of “E-score (-0.5 to 0.5)” is about -0.0059, and the highest 2% start at about 0.26. The sample holds the highest values, similar sequences and a random draw of the others, so the mix is not that of the screen.
readout label: PBM E-score
Give bare numbers.

Solved cases (4 shown):
1) CGTGCGGC: -0.139
2) ACCTTACA: -0.0412
3) GTGAGATA: 0.164
4) ATACAACA: 0.272

Would you be so kind as to report PBM E-score for each listed record?
1. CATCGATG
2. GAATGTGA
3. CCTTCATA
4. AGGGCCCC
5. AATGTCAA
6. CATGTAAA

0.0124
0.00014
0.0109
-0.322
0.176
-0.054

Would you be so kind as to report PBM E-score for each listed record?
1. CTTAGTGA
2. CATCGATA
3. GATGACAA

0.0718
0.258
0.27

Would you be so kind as to report PBM E-score for each listed record?
1. GACTAGAC
2. GAACAAAA

[-0.179, 0.278]
